Data provenance is the supplement of paper PMC11424490.

System: NCI-H2122
test.method.notes: combination cScore with adagrasib (Bliss gap around IC50) (%PoC); higher = stronger additive effect
measurement.kind: combination cScore with adagrasib
Please give only the number in your answer, with no unit.

COc1ccccc1-c1cc(Nc2cccc(CS(N)(=O)=O)c2)ncn1 [LDC-067] + C=C(F)C(=O)N1CCN(c2nc(OC[C@@H]3CCCN3C)nc3c2CCN(c2cccc4cccc(Cl)c24)C3)C[C@@H]1CC#N ... 5.11

Entry under test: NC1(c2ccc(-c3nc4ccn5c(=O)[nH]nc5c4cc3-c3ccccc3)cc2)CCC1 [MK-2206] + C=C(F)C(=O)N1CCN(c2nc(OC[C@@H]3CCCN3C)nc3c2CCN(c2cccc4cccc(Cl)c24)C3)C[C@@H]1CC#N . Its combination cScore with adagrasib was 8

----------
combination cScore with sotorasib values by entry
Tested on: NCI-H2122
test.method.notes: combination cScore with sotorasib (Bliss gap around IC50) (%PoC); higher = stronger additive effect
Please give only the number in your answer, with no unit.

Nc1ccn([C@@H]2O[C@H](CO)[C@@H](O)[C@@H]2O)c(=O)n1 [Cytarabin] + C=CC(=O)N1CCN(c2nc(=O)n(-c3c(C)ccnc3C(C)C)c3nc(-c4c(O)cccc4F)c(F)cc23)[C@@H](C)C1 ... 5.6
COc1cc2cc(c1Cl)N(C)C(=O)C[C@H](OC(=O)C(C)C)[C@]1(C)O[C@@H]1[C@H](C)[C@@H]1C[C@@](O)(NC(=O)O1)[C@H](OC)/C=C/C=C(\C)C2 [Ansamitocin P3] + C=CC(=O)N1CCN(c2nc(=O)n(-c3c(C)ccnc3C(C)C)c3nc(-c4c(O)cccc4F)c(F)cc23)[C@@H](C)C1 ... 5.88
COc1cc(Nc2c(C#N)cnc3cc(OCCCN4CCN(C)CC4)c(OC)cc23)c(Cl)cc1Cl [Bosutinib] + C=CC(=O)N1CCN(c2nc(=O)n(-c3c(C)ccnc3C(C)C)c3nc(-c4c(O)cccc4F)c(F)cc23)[C@@H](C)C1 ... 8.9

Entry under test: Cc1nc(NC(=O)N2CCC[C@H]2C(N)=O)sc1-c1ccnc(C(C)(C)C(F)(F)F)c1 [BYL-719] + C=CC(=O)N1CCN(c2nc(=O)n(-c3c(C)ccnc3C(C)C)c3nc(-c4c(O)cccc4F)c(F)cc23)[C@@H](C)C1 . Its combination cScore with sotorasib was 24.8

----------
combination cScore with adagrasib values by entry
Tested on: NCI-H2122
test.method.notes: combination cScore with adagrasib (Bliss gap around IC50) (%PoC); higher = stronger additive effect
Please give only the number in your answer, with no unit.

Known combination cScore with adagrasib results, listed for orientation:
CCN1CCN(c2ccc(Nc3cc(N(C)C(=O)Nc4c(Cl)c(OC)cc(OC)c4Cl)ncn3)cc2)CC1 [BGJ398] + C=C(F)C(=O)N1CCN(c2nc(OC[C@@H]3CCCN3C)nc3c2CCN(c2cccc4cccc(Cl)c24)C3)C[C@@H]1CC#N ... -3.17
Cn1nnc2c(C(N)=O)ncn2c1=O [Temozolomide] + C=C(F)C(=O)N1CCN(c2nc(OC[C@@H]3CCCN3C)nc3c2CCN(c2cccc4cccc(Cl)c24)C3)C[C@@H]1CC#N ... 12.1

Entry under test: Cc1[nH]c(/C=C2\C(=O)Nc3ccc(S(=O)(=O)Cc4c(Cl)cccc4Cl)cc32)c(C)c1C(=O)N1CCC[C@@H]1CN1CCCC1 + C=C(F)C(=O)N1CCN(c2nc(OC[C@@H]3CCCN3C)nc3c2CCN(c2cccc4cccc(Cl)c24)C3)C[C@@H]1CC#N . Its combination cScore with adagrasib was 6.94

Entry under test: COc1cc(Nc2c(C#N)cnc3cc(OCCCN4CCN(C)CC4)c(OC)cc23)c(Cl)cc1Cl [Bosutinib] + C=C(F)C(=O)N1CCN(c2nc(OC[C@@H]3CCCN3C)nc3c2CCN(c2cccc4cccc(Cl)c24)C3)C[C@@H]1CC#N . Its combination cScore with adagrasib was 14.5

Entry under test: CCN1CCN(Cc2ccc(Nc3ncc(F)c(-c4cc(F)c5nc(C)n(C(C)C)c5c4)n3)nc2)CC1 [Abemaciclib] + C=C(F)C(=O)N1CCN(c2nc(OC[C@@H]3CCCN3C)nc3c2CCN(c2cccc4cccc(Cl)c24)C3)C[C@@H]1CC#N . Its combination cScore with adagrasib was 5.55

Entry under test: Cc1ncc([N+](=O)[O-])n1CCOC(=O)NC(Nc1ncccn1)C(Cl)(Cl)Cl (stereo not drawn) [Apcin] + C=C(F)C(=O)N1CCN(c2nc(OC[C@@H]3CCCN3C)nc3c2CCN(c2cccc4cccc(Cl)c24)C3)C[C@@H]1CC#N . Its combination cScore with adagrasib was 2.71

Entry under test: CS(=O)(=O)c1ccc(-c2cnc(N)c(C(=O)Nc3ccccc3)n2)cc1 [VE-821] + C=C(F)C(=O)N1CCN(c2nc(OC[C@@H]3CCCN3C)nc3c2CCN(c2cccc4cccc(Cl)c24)C3)C[C@@H]1CC#N . Its combination cScore with adagrasib was 4.3

Entry under test: CC(C)N(CCCNC(=O)Nc1ccc(C(C)(C)C)cc1)C[C@H]1O[C@@H](n2ccc3c(N)ncnc32)[C@H](O)[C@@H]1O + C=C(F)C(=O)N1CCN(c2nc(OC[C@@H]3CCCN3C)nc3c2CCN(c2cccc4cccc(Cl)c24)C3)C[C@@H]1CC#N . Its combination cScore with adagrasib was 19.1
